assay: S6 kinase pathway phospho-S6 level changes – cell-based, A549, cytoblot, luminescence, serum-stimulated, primary screen (AID 1158); settings: 5 h, higher = more signal;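 further: serum-stimulated A549 lung adenocarcinoma cells; signal is phosphorylated S6 detected by cytoblot immunostaining with HRP secondary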
Listed here: items and their measured z-score.
Reply with the value as a number alone.

Example results:
smiles_notation=CCOC(=O)C[C@H]1[C@H](OC(=O)c2ccc(-c3ccccc3)cc2)[C@@H](NC(=O)CC(C)C)c2cc(OCCCO)ccc2N1C(=O)c1ccc2ccccc2n1 measured_number=0.2
smiles_notation=O=C1C[C@]2(c3ccc([N+](=O)[O-])cc3)C(=O)N(C3CC3)c3cc(CO)ccc3[C@H]2N1CC12CC3CC(CC(C3)C1)C2 measured_number=0.204

Next molecule, please.
input: Given C[N+](C)(C)CCCCCCNC(=O)[C@@H]1C[C@@H]2C(=O)N3CCC[C@H]3C(=O)N2[C@@H]1c1ccc(O)cc1 , respond with its z-score.
output: -0.196

---

tested on: Noggin (protein binding on small-molecule microarray); assay: small molecules binding Noggin protein – biochemical, 635/667 nm fluorescence, primary screen (AID 1095); details: 635 nm fluorescence, higher = more signal;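 further: score merges 667 nm feature fluorescence with signal to noise over triplicate slides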
Listed here: items and their measured composite z-score.
Reply with the value as a number alone.

compound=CCOC(=O)C[C@H]1[C@H](OC(=O)c2cc3ccccc3oc2=O)[C@@H](NC(=O)c2ccccc2)c2cc(OCCCO)ccc2N1C(=O)c1ccccc1 measured_target="Noggin (protein binding on small-molecule microarray)" assay_readout="composite z-score" measured_number=0.992
compound=COc1ccc(C#Cc2ccc3c(c2)[C@]2(C(=O)N3)[C@H](C(=O)O)[C@H]3C(=O)O[C@H](c4ccccc4)[C@H](c4ccccc4)N3[C@@H]2c2ccc(O)cc2)cc1 measured_target="Noggin (protein binding on small-molecule microarray)" assay_readout="composite z-score" measured_number=-0.654
compound="CC(=O)N1CC2(CC2)CC1c1ccccc1 (configuration not stated)" measured_target="Noggin (protein binding on small-molecule microarray)" assay_readout="composite z-score" measured_number=0.423
compound="CCCCC(O)C1C=CC2C(=O)N(C)C(=O)C2N1N(c1ccccc1)c1ccccc1 (configuration not stated)" measured_target="Noggin (protein binding on small-molecule microarray)" assay_readout="composite z-score" measured_number=-0.0371
compound=COC(=O)[C@@]1(Cc2ccc(OC)cc2)[C@H]2c3cc(C(=O)N4CCCC4)n(CCO)c3C[C@H]2CN1C(=O)c1ccccc1 measured_target="Noggin (protein binding on small-molecule microarray)" assay_readout="composite z-score" measured_number=-0.0367
compound=CC[C@@H]1C=C(C(=O)O)[C@H](c2ccc(C#N)cc2)N1S(=O)(=O)c1ccc(C)cc1 measured_target="Noggin (protein binding on small-molecule microarray)" assay_readout="composite z-score" measured_number=-0.911

Next compound, please.
input: Given Cc1ccc(N2C(=O)c3ccccc3[C@@H](C(=O)NCCCN(C)C)[C@@H]2c2ccc(CO)cc2)nc1 , respond with its composite z-score.
output: -0.572

---

test: FRG1 expression reporter modulators in myotubes – cell-based, C2C12 myotubes, firefly/Renilla luciferase, luminescence, FRG1 inhibition for FSHD, primary screen (AID 1084); conditions: FRG1 promoter luciferase, higher = more signal, called active from +8 up or from −8 down
Listed here: items and their measured z-score.
Reply with the value as a number alone.

compound=C=CCNC(=O)[C@@H]1[C@H]2C(=O)O[C@H](c3ccccc3)[C@H](c3ccccc3)N2[C@H](c2ccc(O)cc2)[C@@]12C(=O)N(C(=O)OCCOC)c1ccc(C#CC3=CCCCC3)cc12 measured_number=0.816
compound=Cc1ccc(S[C@]2(C(=O)O)CC(=O)N(C3CCCCC3)[C@@H]2c2ccc(CO)cc2I)cc1 measured_number=-0.163
compound=COC(=O)C/C=C/C[C@]1(O)C(=O)N(C)c2ccccc21 measured_number=-1.59

input: Given Cc1ccc(N2C(=O)c3ccccc3[C@@H](C(=O)NCCCN(C)C)[C@@H]2c2ccc(CO)cc2)nc1 , respond with its z-score.
output: 0.298

input: Given C=CC[C@]1(C(=O)N2CCCCC2)N=C(c2ccc(OCCCO)cc2)O[C@H]1c1ccccc1CN=[N+]=[N-] , respond with its z-score.
output: -1.08

input: Given COC(=O)[C@@]1(Cc2ccc(F)cc2)[C@H]2c3cc(C(=O)N(C)C)n(Cc4ccc(OC(F)(F)F)cc4)c3C[C@H]2CN1C(=O)c1ccccc1 , respond with its z-score.
output: 0.306

input: Given CC(=O)NCCCC[C@@H]1NC(=O)[C@@H]2C[C@H](C(=O)NCCCCCN)[C@H](c3ccc(O)cc3)N2C1=O , respond with its z-score.
output: 0.604

input: Given CC(C)c1ccc(NN2C(C(O)c3ccc(C#N)cc3)C=CC3C(=O)N(c4ccccc4)C(=O)C32)cc1 (stereo unspecified) , respond with its z-score.
output: -2.97

input: Given CCCCCC1=C2CNC(C)(C(=O)OC)C=C2C(C)C1=O (stereo unspecified) , respond with its z-score.
output: 1.78

input: Given O=C(NCCN1CCOCC1)[C@@H]1c2ccccc2C(=O)N(Cc2ccccc2Cl)[C@H]1c1ccc(CO)cc1 , respond with its z-score.
output: -2.41

input: Given CS(=O)(=O)CCOC(=O)C1=CC(CCCO)=CC(c2ccc(CN3CCCC3)cc2)N(Cc2sc3ccccc3c2Cl)C=C1C(=O)OCCS(C)(=O)=O (stereo unspecified) , respond with its z-score.
output: 0.168
